Test system: MCF10A
Assay: percent viability (nuclei count relative to siNT); higher = more viable cells
Details: 20 nM; 72 h
PROPERTY LABEL: percent viability (%)

sequence_string="AAGCCCUUACCCCAAAAAGCAU [hsa-miR-129-2-3p]" measured_result=64.7
sequence_string="UCCGAACUCUCCAUUCCUCUGC [hsa-miR-6716-3p]" measured_result=166
sequence_string="AGAAGAAGGCGGUCGGUCUGCGG [hsa-miR-3185]" measured_result=29.1
sequence_string="AAUCUGAGAAGGCGCACAAGGU [hsa-miR-3200-5p]" measured_result=32.7
sequence_string="UCCCCUUCCUCCCUGCCCAG [hsa-miR-6756-3p]" measured_result=51.9
sequence_string="CAAAAACCGCAAUUACUUUUGCA [hsa-miR-548z]" measured_result=36
sequence_string="GGGGGGGGGGGGGGGGGGCCG [hsa-miR-1234-5p]" measured_result=78.1
sequence_string="AAGGGGCUGGGGGAGCACA [hsa-miR-6085]" measured_result=22
sequence_string="CCCUCUCUGGCUCCUCCCCAAA [hsa-miR-4723-3p]" measured_result=114
sequence_string="UGGGGGGACAGGAUGAGAGGCUGU [hsa-miR-6795-5p]" measured_result=16.8
sequence_string="GAAGGACCUGCACCUUCG [hsa-miR-6816-3p]" measured_result=35.3
sequence_string="GGGAUAUGAAGAAAAAU [hsa-miR-3201]" measured_result=59.6
